- TARGET_OR_SYSTEM: Glc(a1-4)Glc
- METHOD_DESCRIPTION: glycan array binding signal (z-score within array); higher = stronger binding
- CONDITION_DESCRIPTION: glycan notation: IUPAC condensed, linker removed
This is one part of a sample in which the strongest signals are shown more often than they occur.
PROPERTY_LABEL: glycan array binding signal (z-score)
Give your answer as a number; write no unit.

Quick one: glycan array binding signal (z-score) for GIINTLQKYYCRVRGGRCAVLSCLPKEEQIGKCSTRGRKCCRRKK [Beta-Defensin 3 (Homo sapiens), P81534] ?
0.053

Same thing, different binder: PFL (Pseudomonas fluorescens) (protein) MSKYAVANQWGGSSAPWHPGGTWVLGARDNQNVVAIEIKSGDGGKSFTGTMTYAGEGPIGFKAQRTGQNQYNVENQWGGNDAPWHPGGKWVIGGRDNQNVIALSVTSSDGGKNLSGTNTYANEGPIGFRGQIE
-0.116

Same thing, different binder: CVNH0 (Neurospora crassa), Q7S6U4 (protein) GSHIGPYMSFHVTAEDARIEVRDNRTILFARLRREDGEWNDASYELDQIIGNNDGHFQWGGQNFTETAEDIRFHPKEGAAEQPILRARLRDCNGEFHDRDVNLTEIVENVNGEFQAKF
-0.391

Same thing, different binder: IRp60B (Homo sapiens), Q9UGN4-3 (protein) MWLPWALLLLWVPAGDHSELSQNPKQAATQSELHYANLELLMWPLQEKPAPPREVEVEYSTVASPREELHYASVVFDSNTNRIAAQRPREEEPDSDYSVIRKT
-0.26

Same thing, different binder: SEX4 (Arabidopsis thaliana), Q944A8 (protein) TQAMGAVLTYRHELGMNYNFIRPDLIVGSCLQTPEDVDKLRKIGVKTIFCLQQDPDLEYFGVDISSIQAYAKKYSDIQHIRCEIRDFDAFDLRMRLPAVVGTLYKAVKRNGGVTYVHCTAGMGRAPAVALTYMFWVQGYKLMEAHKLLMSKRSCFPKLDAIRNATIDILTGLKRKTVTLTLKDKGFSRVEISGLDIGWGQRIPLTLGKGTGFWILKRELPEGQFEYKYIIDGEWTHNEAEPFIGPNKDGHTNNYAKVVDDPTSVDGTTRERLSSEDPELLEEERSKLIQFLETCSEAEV
-0.393

Same thing, different binder: Cohesin-hMARCO (Homo sapiens) (protein) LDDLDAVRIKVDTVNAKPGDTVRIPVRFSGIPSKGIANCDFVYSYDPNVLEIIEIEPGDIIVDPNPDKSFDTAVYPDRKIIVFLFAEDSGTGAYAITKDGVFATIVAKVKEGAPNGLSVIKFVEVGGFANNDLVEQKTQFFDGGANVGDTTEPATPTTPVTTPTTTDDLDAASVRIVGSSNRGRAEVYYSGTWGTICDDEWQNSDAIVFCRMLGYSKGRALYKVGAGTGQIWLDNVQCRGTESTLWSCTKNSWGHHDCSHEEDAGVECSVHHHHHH
-0.037
